Tested on: TAG
experiment_description: TAG lipid buildup inhibition with viability readout – cell-based, panel, Nile Red and DAPI fluorescence, H9c2, dose response (AID 651630);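 further: cells exposed to compound overnight before fixation and staining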
condition_notes: H9c2 cells, Nile Red TAG fluorescence, oleic acid, mean of runs
The source made the active and inactive calls.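 How the source made its calls: active means lipid-stain IC50 at or below a set limit, with nuclear-stain toxicity IC50 at least five times higher; inactive means the rest.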
Labels: active, inactive

                                   compound  system_name  label_value
0  Cc1cc(C)c2nc(NC(=O)c3ccc([N+](=O)[O-])o3)sc2c1          TAG     inactive
1     CCC1=Nc2cc(C(=O)NCCCOC)ccc2Sc2ccccc21          TAG     inactive
2  O=C(Nc1ccccc1)c1ccc(NCC2CCCO2)c(S(=O)(=O)N2CCOCC2)c1 (stereo not given)          TAG     inactive
3  O=C(Nc1ccc(S(=O)(=O)N2CCOCC2)cc1)c1ccc([N+](=O)[O-])s1          TAG       active
4    CCOc1cc(CNc2ccc3c(c2)OCCO3)cc(Br)c1OCC          TAG     inactive
5   CCCC(=O)Nc1nc2ccc(NC(=O)c3ccccc3F)cc2s1          TAG       active
6  CCOC(=O)[C@H]1[C@H]2COc3ccc(Cl)cc3[C@@H]2N2C(=O)c3cc(Cl)ccc3NC(=O)[C@@]12C          TAG       active
7  CCN(CC)CCNC(=O)C(Cl)=C1C(Cl)=C(Cl)C(Cl)=C1Cl          TAG     inactive
8  Nc1c(C(=O)Nc2ccccc2)c2nc3ccccc3nc2n1-c1ccc(O)cc1          TAG       active
9  CCC(C)(C)NC(=O)C(c1ccc(OC)cc1)N(Cc1ccco1)C(=O)CCC(=O)Nc1cc(C)on1 (stereo not given)          TAG     inactive

* * *

Test system: DAPI
experiment_description: TAG lipid buildup inhibition with viability readout – cell-based, panel, Nile Red and DAPI fluorescence, H9c2, dose response (AID 651630);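 further: cells exposed to compound overnight before fixation and staining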
condition_notes: H9c2 cells, DAPI nuclear fluorescence (cytotoxicity counter-readout), oleic acid, mean of runs
The source made the active and inactive calls.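 The calls were made as follows: active = lipid-stain IC50 at or below a set limit, with nuclear-stain toxicity IC50 at least five times higher; inactive = the rest.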
measured_parameter: IC50 cytotoxicity (DAPI nuclear signal decrease)

In [3]: df
Out[3]:
                                    compound  system_name              result
 0  CCN1CCN(Cc2ccc(NC(=O)c3cc(NC(=O)C(=O)c4c[nH]c5ccccc45)cc(OC)c3)cc2C(F)(F)F)CC1         DAPI  23.4 µM (inactive)
 1  CCOc1cc(CNC(C)(C)C)ccc1OCC(=O)Nc1cccc(C(F)(F)F)c1         DAPI  > 25 µM (inactive)
 2  COc1cc(-c2cc(NC=O)c3ncc(-c4cccc(C(=O)N(C)C)c4)n3c2)cc(OC)c1OC         DAPI  > 25 µM (inactive)
 3  c1ccc(OCCNc2nc(NCC3CC3)nc3cc(-c4ccccc4)sc23)cc1         DAPI  > 25 µM (inactive)
 4  Nc1ncnc2c1ncn2C1C=C(CO)C(O)C1O (configuration not stated)         DAPI  > 25 µM (inactive)
 5  Cc1ccsc1-c1nc(C(N)=O)c2[nH]c(=O)n(-c3ccc(Cl)cc3)c2n1         DAPI  > 25 µM (inactive)
 6  O=[N+]([O-])c1cccc(S(=O)(=O)N2CN(c3ccc(Br)cc3)c3nc4ccccc4nc32)c1         DAPI  > 25 µM (inactive)
 7     CCCCOc1ccc(CSC2=NCCN2)cc1[N+](=O)[O-]         DAPI  > 25 µM (inactive)
 8  Cc1ccc(CC2(OCCN(C)C)CCC(C(C)(C)C)CC2)cc1 (configuration not stated)         DAPI  23.5 µM (inactive)
 9  CCN(CC)CCNC(=O)C(Cl)=C1C(Cl)=C(Cl)C(Cl)=C1Cl         DAPI  21.4 µM (inactive)
10  CCN(C(=O)COC(=O)c1cc(-c2ccccc2)nc2c1c(C)nn2-c1ccc(C)cc1)C1CCS(=O)(=O)C1 (configuration not stated)         DAPI  > 25 µM (inactive)
11  Cc1ccccc1OCCNc1cc(N2CC(C)NC(C)C2)ccc1[N+](=O)[O-] (configuration not stated)         DAPI  > 25 µM (inactive)
12  CSc1ccc(C2=C/C(=C3/SC(=S)NC3=O)c3ccccc3O2)cc1         DAPI  > 25 µM (inactive)
13  O=C1c2ccccc2C(=O)c2c1cccc2N1CCN(C/C=C/c2ccccc2)CC1         DAPI  > 25 µM (inactive)
14  Cc1ccc2oc(NC3=NC4(CCCC4)C4=C(CCCC4=O)N3)nc2c1         DAPI  > 25 µM (inactive)
15  CCOc1ccc(NC(=O)c2ccc(NC(=O)CSc3nc4ccccc4c(=O)[nH]3)cc2)cc1         DAPI  > 25 µM (inactive)
16  CC(C)(C)N1C(=O)[C@H]2[C@@H](c3ccc(Br)cc3)N3C(=O)N(c4ccc(Br)cc4)C(=O)[C@@]3(Cc3ccccc3)[C@H]2C1=O         DAPI  > 25 µM (inactive)

* * *

Below, each entry is listed alongside its reported IC50 cytotoxicity (DAPI nuclear signal decrease).
System: DAPI
experiment_description: TAG lipid buildup inhibition with viability readout – cell-based, panel, Nile Red and DAPI fluorescence, H9c2, dose response (AID 651630);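 further: cells exposed to compound overnight before fixation and staining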
condition_notes: H9c2 cells, DAPI nuclear fluorescence (cytotoxicity counter-readout), oleic acid, run 2
measured_parameter: IC50 cytotoxicity (DAPI nuclear signal decrease)

>>> print(df.to_string())
                              line_notation   result
0  O=C(CSc1nc2ccc(Nc3nc(N4CCOCC4)nc(N4CCOCC4)n3)cc2s1)Nc1ccccc1F  > 25 µM
1  COc1ccc([C@H]2C[C@H](O)[C@@H](n3cc(-c4ccc(F)cc4)nn3)CN2Cc2cccs2)cc1  > 25 µM
2  CCOC(=O)[C@H]1[C@H]2COc3ccc(C)cc3[C@@H]2N2C(=O)c3cc(Br)ccc3NC(=O)[C@@]12C  > 25 µM

* * *

System: TAG
experiment_description: TAG lipid buildup inhibition with viability readout – cell-based, panel, Nile Red and DAPI fluorescence, H9c2, dose response (AID 651630);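 further: cells exposed to compound overnight before fixation and staining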
condition_notes: H9c2 cells, Nile Red TAG fluorescence, oleic acid, mean of runs
Calls of active or inactive are those of the source.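 How the source made its calls: active means lipid-stain IC50 at or below a set limit, with nuclear-stain toxicity IC50 at least five times higher; inactive means the rest.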
Entries and their measured IC50 follow.
measured_parameter: IC50

compound	result
Cc1ccc(CNC(=O)c2ccc(N3CCC4(CC3)CC(c3ccccc3)=NO4)c(NC(=O)c3ccc(Br)cc3)c2)cc1	4.43 µM
COc1ccc(-c2sc3ccc(N4CCOCC4)cc3c2C#CCCO)cc1	> 25 µM (inactive)
C[C@@H]1CN([C@@H](C)CO)C(=O)c2cccc(NC(=O)Nc3ccc(F)cc3)c2O[C@@H]1CN(C)Cc1ccc(Oc2ccccc2)cc1	1.42 µM
CCCCCc1cc(=O)oc2c(C(CCN(CC)CC)c3ccc(OC)cc3)c(OC)cc(OC)c12 (configuration not stated)	> 25 µM (inactive)
COc1ccc(Nc2nc3cc(-c4sccc4C)sc3c(=O)n2C)cc1OC	16.6 µM (inactive)
CCCCCCN(C(=O)CCCCCN1C(=O)NC(c2ccc([N+](=O)[O-])cc2)C(C(=O)OCc2ccccc2)=C1C)C(C(=O)NCCCC)C1CCCCC1 (configuration not stated)	5.66 µM
CCCc1cc(C(=O)N/N=C/c2ccc(CC)s2)c2ccccc2n1	> 25 µM (inactive)
CC(C)(Oc1ccc(Cl)cc1)C(=O)Nc1ccc2oc(-c3ccncc3)nc2c1	> 25 µM (inactive)
COc1ccccc1Nc1nnc(SCC(=O)Nc2nc(-c3ccc(F)cc3)cs2)s1	> 25 µM (inactive)
C=CCN1C(=O)/C(=C2\SC(N3CCOCC3)=NC2=O)c2cc(Br)ccc21	22.4 µM (inactive)
CC(C)CCNCC(O)CON=C1c2ccccc2-c2ccccc21 (configuration not stated)	> 25 µM (inactive)
O=C(Nc1cc2c3c(c1)C1CCCC1CN3CC1CCCC21)c1ccc([N+](=O)[O-])cc1 (configuration not stated)	12.3 µM
CC(C)C[C@H]1C(=O)N2CCC[C@H]2[C@]2(O)O[C@](NC(=O)[C@@H]3C=C4c5cccc6[nH]c(Br)c(c56)CC4N(C)C3)(C(C)C)C(=O)N12 (some centres not stated)	6.72 µM
COc1ccc(-c2cc(C(F)F)n3ncc(C(=O)Nc4cccc(S(=O)(=O)N5CCOCC5)c4)c3n2)cc1	13.9 µM
CCCCCC(/C=N/Nc1ccc(S(=O)(=O)N2CCOCC2)cc1[N+](=O)[O-])=C\c1ccccc1	14.4 µM
CC1CCN(c2cc(N3CCC(C)CC3)c([N+](=O)[O-])cc2/C=C(\C#N)c2nn(-c3ccccc3)c(N)c2C#N)CC1	> 25 µM (inactive)
O=C(CC1C[C@H](C(=O)N2CCOCC2)[C@@]2(CCC3CCCC3)c3[nH]c4ccccc4c3CCN2C1=O)NCC12CC3CC(CC(C3)C1)C2 (some centres not stated)	> 25 µM (inactive)
CNC(=S)NN=C(C)CCCC(C)=NNC(=S)NC	> 25 µM (inactive)
Nc1ccc2ccccc2c1N=Nc1ccccc1	9.51 µM
COc1ccc2nc3cc([N+](=O)[O-])ccc3c(NNc3ccc([N+](=O)[O-])cc3)c2c1	5.93 µM
COc1ccc(-c2cc3nc(-c4ccccc4)cc(N4CCN(C(=O)c5ccccc5)CC4)n3n2)cc1	> 25 µM (inactive)
C[C@H](O)[C@@H]1CN2CCc3c([nH]c4ccc(-c5ccc6c(c5)OCO6)cc34)[C@@H]2C[C@@H]1N(C)C(=O)Nc1cc(Cl)cc(Cl)c1	18.2 µM (inactive)
COCCOC(=O)c1[nH]c2c(c1C)C(=O)CC(c1ccccc1)C2 (configuration not stated)	> 25 µM (inactive)
CN1CCCC(n2nc(Cc3ccc(Cl)cc3)c3ccccc3c2=O)CC1 (configuration not stated)	18.3 µM (inactive)
COc1cccc2sc(Nc3nc(-c4cc5ccccc5oc4=O)cs3)nc12	8.35 µM
CCOC(=O)c1cc(-c2ccccc2)sc1NC(=O)C(C)N1C(=O)NC(C)(c2ccc(Cl)cc2)C1=O (configuration not stated)	5.58 µM
CCN(CC)CCNc1nc2cc(OC)c(OC)cc2c2nc(-c3ccccc3)nn12	> 25 µM (inactive)
CNC(=O)c1ccc(-c2sc3nc(N4CCOCC4)c4c(c3c2N)CCCC4)o1	6.57 µM
Cc1cccc(Oc2nc(-c3ccccn3)nc3ccccc23)c1	> 25 µM (inactive)
CCOc1ccc(CCNC(=O)CN2CCN(Cc3ccccc3C)C2=O)cc1OCC	2.19 µM
CNC(=S)NN=C(C)c1ccc(OC)cc1O	> 25 µM (inactive)
CC(=O)Nc1cccc(-c2ccnc3c2CC(C)(C(=O)NCc2ccc(N(C)C)cc2)O3)c1 (configuration not stated)	15.1 µM (inactive)
